Entry source: patent US20230183352A1

Target: T1, Claudin 18.2 (CLDN18.2), expressed on CHOS-CLDN 18.2 / HEK293-CLDN 18.2 / HCC827-CLDN 18.2 cells (human, UniProt P56856-2 1-261)
T1 construct: whole, on cells; The species is not repeated for the CHOS-CLDN 18.2 cells; also called claudin-18A2
Experiment: FACS, CHOS-CLDN18.2 cells, 0 µg/ml (background)
Quick reference for FACS reading among some binders
A bare number is all that is needed in reply.

Q. Could you share which FACS reading value was measured for QP14631461 (antibody, human IgG1, kappa, V domains shown, also called QP14611463) VH: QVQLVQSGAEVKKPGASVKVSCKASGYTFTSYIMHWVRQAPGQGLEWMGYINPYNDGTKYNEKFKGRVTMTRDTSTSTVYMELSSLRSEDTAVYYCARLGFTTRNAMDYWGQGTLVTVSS VL: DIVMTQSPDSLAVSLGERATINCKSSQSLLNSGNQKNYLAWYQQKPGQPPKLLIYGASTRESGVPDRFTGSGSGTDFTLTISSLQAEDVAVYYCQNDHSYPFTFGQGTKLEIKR ?
A. 732

Kindly consider the entry below.
Q. FACS reading lookup needed for QP207208 (antibody, human IgG1, V domains shown, Chimeric; also called 51A3; mouse-derived chimeric antibody QP207208) VH: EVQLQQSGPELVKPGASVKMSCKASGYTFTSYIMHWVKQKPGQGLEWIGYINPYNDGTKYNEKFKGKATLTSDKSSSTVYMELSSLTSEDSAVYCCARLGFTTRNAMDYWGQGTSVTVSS VL: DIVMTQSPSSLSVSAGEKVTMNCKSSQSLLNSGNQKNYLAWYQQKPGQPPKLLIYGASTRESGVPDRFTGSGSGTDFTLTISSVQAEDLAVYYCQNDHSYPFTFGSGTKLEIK , thanks.
A. 732
